Measured Bmax relative to '535 of individual entries
biological target: T1, huNav1.7α+β1 (human, UniProt Q15858 1-1988; Q07699 19-218); experiment: binding FACS, HEKa/β1 cells
T1 construct: also called huNav1.7-beta1; HEKa/β1
// units = %; emit number, no label

Recorded Bmax relative to '535, per entry:
binder="F010301191 (VHH, vs F0103265A11: A31R, Y56W, V60N, S93A, R101V, L103Q) VHH: EVQLVESGGGLVQPGGSLRLSCAASGMLFNRNTQGWYRQAPGKQRELVAFIFSGGWTNYNDSVKGRFTISRDNAKRTMYLQMNSLKPEDSAIYYCALSVYQGQGTLVTVSS" quantity_unit=% recorded_measurement=119
binder="F010301129 (VHH, vs F0103265A11: Y56W, V60N, S93A, L103Q) VHH: EVQLVESGGGLVQPGGSLRLSCAASGMLFNANTQGWYRQAPGKQRELVAFIFSGGWTNYNDSVKGRFTISRDNAKRTMYLQMNSLKPEDSAIYYCALSRYQGQGTLVTVSS" quantity_unit=% recorded_measurement=103

Find the measured Bmax relative to '535 of F010301126 (VHH, vs F0103265A11: A31R, T57V, N58T, V60N) VHH: EVQLVESGGGLVQPGGSLRLSCAASGMLFNRNTQGWYRQAPGKQRELVAFIFSGGYVTYNDSVKGRFTISRDNAKRTMYLQMNSLKPEDSAIYYCSLSRYLGQGTLVTVSS and report it. 118

Find the measured Bmax relative to '535 of F0103265A11 (parental)-FLAG-HIS6 (VHH, also called F01033265A11) VHH: EVQLVESGGGLVQPGGSLRLSCAASGMLFNANTQGWYRQAPGKQRELVAFIFSGGYTNYVDSVKGRFTISRDNAKRTMYLQMNSLKPEDSAIYYCSLSRYLGQGTLVTVSS and report it. 34

Find the measured Bmax relative to '535 of F010301139 (VHH, vs F0103265A11: A31R, I51W, T57V, V60N, L103Q) VHH: EVQLVESGGGLVQPGGSLRLSCAASGMLFNRNTQGWYRQAPGKQRELVAFWFSGGYVNYNDSVKGRFTISRDNAKRTMYLQMNSLKPEDSAIYYCSLSRYQGQGTLVTVSS and report it. 117

Find the measured Bmax relative to '535 of F010301232 (VHH, vs F0103265A11: A31R, N58T, S93A, L103Q) VHH: EVQLVESGGGLVQPGGSLRLSCAASGMLFNRNTQGWYRQAPGKQRELVAFIFSGGYTTYVDSVKGRFTISRDNAKRTMYLQMNSLKPEDSAIYYCALSRYQGQGTLVTVSS and report it. 112
